Origin of measurements: the NIST ThermoML archive (doi:10.1021/je301284x)

Reported electrical conductivity values for a set of molecules
settings: 343.15 K; 101.33 kPa; Liquid

# example entries with known answers
# molecule, electrical conductivity
records = [
    ("C=CC[NH+](CC)CC.O=S(=O)([O-])C(F)(F)F [N,N-diethylprop-2-en-1-aminium trifluoromethanesulfonate]", "1.26 S/m"),
    ("CCC[NH+](C)C.O=S(=O)([O-])C(F)(F)F [N,N-dimethylpropan-1-aminium trifluoromethanesulfonate]", "2.39 S/m"),
    ("C=CC[NH+](C)CC=C.O=S(=O)([O-])C(F)(F)F", "1.43 S/m"),
    ("C=CC[NH+](C)C.O=S(=O)([O-])C(F)(F)F [N,N-dimethylprop-2-en-1-aminium trifluoromethanesulfonate]", "2.65 S/m"),
    ("CC[NH+](C)CC.O=S(=O)([O-])C(F)(F)F [diethylmethylammonium trifluoromethanesulfonate]", "2.15 S/m"),
]

# return recorded electrical conductivity for input CCC[NH+](C)CCC.O=S(=O)([O-])C(F)(F)F [N-methyl-N-propylpropan-1-aminium trifluoromethanesulfonate]
1.23 S/m

Please report electrical conductivity for the following molecule: CCC[NH+](CC)CC.O=S(=O)([O-])C(F)(F)F [N,N-diethylpropan-1-aminium trifluoromethanesulfonate]
1.13 S/m
